Reference source: patent US20250115569A1

target entity: UniProt:Q15878
Sequence (Q15878 whole entry, looked up): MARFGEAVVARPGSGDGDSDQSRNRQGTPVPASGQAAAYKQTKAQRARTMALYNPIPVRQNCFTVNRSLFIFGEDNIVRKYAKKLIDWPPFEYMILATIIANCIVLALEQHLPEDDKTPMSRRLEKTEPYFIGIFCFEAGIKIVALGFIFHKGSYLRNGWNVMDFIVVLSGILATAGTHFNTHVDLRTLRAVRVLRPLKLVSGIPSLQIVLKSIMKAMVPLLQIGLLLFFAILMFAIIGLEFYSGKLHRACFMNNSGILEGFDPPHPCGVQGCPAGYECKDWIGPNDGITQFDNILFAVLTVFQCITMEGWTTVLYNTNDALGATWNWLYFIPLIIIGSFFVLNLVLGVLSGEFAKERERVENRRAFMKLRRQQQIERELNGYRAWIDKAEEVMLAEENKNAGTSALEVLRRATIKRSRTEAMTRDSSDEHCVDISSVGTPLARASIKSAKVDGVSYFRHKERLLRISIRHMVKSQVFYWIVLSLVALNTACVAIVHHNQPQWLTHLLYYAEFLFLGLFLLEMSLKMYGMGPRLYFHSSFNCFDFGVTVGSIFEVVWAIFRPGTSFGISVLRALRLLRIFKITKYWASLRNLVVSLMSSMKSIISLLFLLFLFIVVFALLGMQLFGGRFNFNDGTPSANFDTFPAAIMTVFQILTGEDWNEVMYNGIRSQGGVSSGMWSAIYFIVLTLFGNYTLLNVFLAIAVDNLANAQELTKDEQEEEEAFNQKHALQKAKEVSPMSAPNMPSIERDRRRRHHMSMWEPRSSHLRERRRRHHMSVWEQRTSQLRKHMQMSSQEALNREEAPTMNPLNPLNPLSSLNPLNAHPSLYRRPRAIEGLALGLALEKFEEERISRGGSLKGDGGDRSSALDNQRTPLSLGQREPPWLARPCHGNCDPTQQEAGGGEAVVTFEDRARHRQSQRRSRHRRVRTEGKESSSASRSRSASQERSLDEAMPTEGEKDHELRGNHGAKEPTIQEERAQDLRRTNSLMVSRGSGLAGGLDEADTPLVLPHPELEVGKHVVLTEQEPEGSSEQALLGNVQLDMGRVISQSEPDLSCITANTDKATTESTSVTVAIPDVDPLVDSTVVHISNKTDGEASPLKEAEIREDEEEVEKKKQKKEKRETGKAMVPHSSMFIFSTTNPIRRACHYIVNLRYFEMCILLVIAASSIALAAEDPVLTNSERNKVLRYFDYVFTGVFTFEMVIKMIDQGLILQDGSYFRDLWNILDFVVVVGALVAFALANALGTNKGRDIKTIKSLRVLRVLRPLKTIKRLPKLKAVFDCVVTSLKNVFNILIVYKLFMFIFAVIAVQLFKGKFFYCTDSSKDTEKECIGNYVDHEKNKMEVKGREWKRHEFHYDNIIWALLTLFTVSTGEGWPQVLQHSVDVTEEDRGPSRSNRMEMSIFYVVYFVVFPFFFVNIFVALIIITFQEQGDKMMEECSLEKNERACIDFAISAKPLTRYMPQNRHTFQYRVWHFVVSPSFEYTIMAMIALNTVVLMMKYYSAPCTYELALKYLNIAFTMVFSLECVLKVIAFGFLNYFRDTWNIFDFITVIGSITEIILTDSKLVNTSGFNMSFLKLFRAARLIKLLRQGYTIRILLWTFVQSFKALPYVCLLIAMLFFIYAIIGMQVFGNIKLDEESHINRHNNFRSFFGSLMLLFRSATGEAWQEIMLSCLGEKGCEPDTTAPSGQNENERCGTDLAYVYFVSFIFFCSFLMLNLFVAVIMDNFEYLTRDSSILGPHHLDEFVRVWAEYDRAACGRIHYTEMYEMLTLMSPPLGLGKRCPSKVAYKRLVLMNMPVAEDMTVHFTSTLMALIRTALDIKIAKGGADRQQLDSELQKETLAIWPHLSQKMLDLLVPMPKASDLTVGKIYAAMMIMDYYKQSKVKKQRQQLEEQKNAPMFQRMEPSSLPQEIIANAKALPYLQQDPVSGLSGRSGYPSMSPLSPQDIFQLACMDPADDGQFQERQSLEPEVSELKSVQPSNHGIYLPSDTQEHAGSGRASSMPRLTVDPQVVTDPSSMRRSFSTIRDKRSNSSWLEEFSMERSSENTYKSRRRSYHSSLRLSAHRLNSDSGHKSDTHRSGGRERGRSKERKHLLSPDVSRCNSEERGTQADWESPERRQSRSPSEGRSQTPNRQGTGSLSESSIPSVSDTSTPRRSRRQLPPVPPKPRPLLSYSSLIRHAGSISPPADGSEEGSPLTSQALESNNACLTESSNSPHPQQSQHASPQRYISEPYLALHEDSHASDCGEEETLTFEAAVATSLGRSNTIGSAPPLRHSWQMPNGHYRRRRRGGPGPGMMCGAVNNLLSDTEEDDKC
measurement protocol: Human Cav2.3 channel calcium-influx assay
Format: cell-based
condition summary: Fluo8 fluorescence, HEK-293 T-Rex/Kir2.1/Cav2.3e cells, without pluronic acid, read-out: Cav2.3 (pIC50) (converted)
experimental readout: IC50 (nM)
Numbers only, in nM.

Sample answers from the record:
CCN(C(c1ccc(F)cc1)C(F)(F)F)S(=O)(=O)c1ccc(C(N)=O)s1 (stereo not drawn): 741
COc1ccc([C@@H](N(C)S(=O)(=O)c2cn3ccncc3n2)C(F)(F)F)cc1: 9330
CCN([C@H](c1ccc(OC)cc1)C(F)(F)F)S(=O)(=O)c1cncc(F)c1: 22.9
CCN([C@H](c1ccc(F)cc1)C(F)(F)F)S(=O)(=O)c1cnc2c(C#N)cnn2c1: 575
CCN([C@H](c1ccc(F)cc1)C(F)(F)F)S(=O)(=O)c1ccc2nc[nH]c2c1: 155
CCN([C@@H](c1ccc(F)cc1)C(F)(F)F)S(=O)(=O)c1cnc(C#N)s1: 3800

For the 3 compounds below, give their IC50 values.
1. CCN([C@@H](c1ccc(F)cc1)C(F)(F)F)S(=O)(=O)c1cnnc(OC)c1
2. CN([C@H](c1ccc(F)cc1)C(F)(F)F)S(=O)(=O)c1ccc2nnc(C(F)(F)F)n2n1
3. CN([C@H](c1ccc(Cl)cc1)C(F)(F)F)S(=O)(=O)c1cccnn1

7240
13200
191
